Test system: human Factor XI mRNA
Assay: Dose-dependent inhibition in cyno primary hepatocytes, electroporation (Example 6)
Format: cell-based, cynomolgus monkey
Conditions: 2.2 nM, approx. 16 h
Measurement Label: percent inhibition of human Factor XI mRNA (%)
Write the number in % without appending the unit.

Known results for substances:
# Substance, Test Target, Observed
records = [
    ("416826 (antisense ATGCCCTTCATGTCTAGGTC; 5-10-5 gapmer, wing sugar chemistry not given here, further chemistry not given here) [compound 416826]", "human Factor XI mRNA", 24),
    ("416850 (antisense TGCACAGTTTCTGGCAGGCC; 5-10-5 gapmer, wing sugar chemistry not given here, further chemistry not given here) [compound 416850]", "human Factor XI mRNA", 20),
    ("416825 (antisense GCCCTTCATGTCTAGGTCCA; 5-10-5 gapmer, wing sugar chemistry not given here, further chemistry not given here) [compound 416825]", "human Factor XI mRNA", 22),
    ("416892 (antisense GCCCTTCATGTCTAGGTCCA; 3-14-3 chimeric gapmer, wing sugar chemistry not given here, further chemistry not given here) [compound 416892]", "human Factor XI mRNA", 20),
    ("417002 (antisense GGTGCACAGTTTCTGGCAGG; 2-13-5 gapmer, wing sugar chemistry not given here, further chemistry not given here) [compound 417002]", "human Factor XI mRNA", 16),
]

Q: Tell me measured percent inhibition of human Factor XI mRNA for 416858 (antisense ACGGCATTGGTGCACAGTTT; 5-10-5 gapmer, wing sugar chemistry not given here, further chemistry not given here) [compound 416858] please.
Ans: 13

Q: Tell me measured percent inhibition of human Factor XI mRNA for 417003 (antisense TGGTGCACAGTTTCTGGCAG; 2-13-5 gapmer, wing sugar chemistry not given here, further chemistry not given here) [compound 417003] please.
Ans: 18

Q: Tell me measured percent inhibition of human Factor XI mRNA for 416925 (antisense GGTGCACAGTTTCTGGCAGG; 3-14-3 chimeric gapmer, wing sugar chemistry not given here, further chemistry not given here) [compound 416925] please.
Ans: 9

Q: Tell me measured percent inhibition of human Factor XI mRNA for 416864 (antisense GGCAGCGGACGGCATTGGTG; 5-10-5 gapmer, wing sugar chemistry not given here, further chemistry not given here) [compound 416864] please.
Ans: 1

Q: Tell me measured percent inhibition of human Factor XI mRNA for 416999 (antisense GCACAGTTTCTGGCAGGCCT; 2-13-5 gapmer, wing sugar chemistry not given here, further chemistry not given here) [compound 416999] please.
Ans: 40

Q: Tell me measured percent inhibition of human Factor XI mRNA for 416838 (antisense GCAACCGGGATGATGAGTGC; 5-10-5 gapmer, wing sugar chemistry not given here, further chemistry not given here) [compound 416838] please.
Ans: 0

###

Test system: Factor XI protein
Assay: Cynomolgus monkeys: plasma Factor XI protein ELISA (Example 29)
Type: in vivo
Details: escalating doses 5, 10, 25 mg/kg s.c., day 15
In the oligonucleotide strings, read from the 5' end, every base follows the letter of its sugar. An asterisk marks phosphorothioate; unmarked linkages are phosphodiester. Other units and linkages are bracketed, terminal groups are in braces. A string of capitals states the bases alone. e = 2'-O-(2-methoxyethyl) (MOE); [5mC] = 5-methylcytosine; d = 2'-deoxy (DNA)
Measurement Label: Inhibition of Factor XI protein relative to the PBS control (%)
Write the number in % without appending the unit.

# Substance, Unit, Observed
measured = [
    ("ISIS 416838: gapmer of Table 6 (antisense eG*e[5mC]*eA*eA*e[5mC]*d[5mC]*dG*dG*dG*dA*dT*dG*dA*dT*dG*eA*eG*eT*eG*e[5mC])", "%", 4),
    ("ISIS 416864: gapmer of Table 8 (antisense eG*eG*e[5mC]*eA*eG*d[5mC]*dG*dG*dA*d[5mC]*dG*dG*d[5mC]*dA*dT*eT*eG*eG*eT*eG)", "%", 9),
    ("ISIS 416850: gapmer of Table 8 (antisense eT*eG*e[5mC]*eA*e[5mC]*dA*dG*dT*dT*dT*d[5mC]*dT*dG*dG*d[5mC]*eA*eG*eG*e[5mC]*e[5mC])", "%", 4),
    ("ISIS 417002: gapmer of Table 8 (antisense eG*eG*dT*dG*d[5mC]*dA*d[5mC]*dA*dG*dT*dT*dT*d[5mC]*dT*dG*eG*e[5mC]*eA*eG*eG)", "%", 4),
]

Now for a further substance.
Q: Tell me measured Inhibition of Factor XI protein relative to the PBS control for ISIS 416858: gapmer of Table 8 (antisense eA*e[5mC]*eG*eG*e[5mC]*dA*dT*dT*dG*dG*dT*dG*d[5mC]*dA*d[5mC]*eA*eG*eT*eT*eT) please.
Ans: 16

Ref: patent US20120083522A1
